# maps each entry to its pIC50
# Test system: ADP-stimulated platelet aggregation
# protocol_summary: Inhibition of ADP-stimulated platelet aggregation
# Assay type: cell-based
# conditions: Table 1
pIC50: −log10 of the molar value. Positions of bridges follow the written chain, without caps; N, C: chain ends. No end group written: not given here.
endpoint_label: pIC50

substance	observed_value
Polypeptide V: NH2 (Ch) Ala Arg Gly Asp (Cy) Z, Z = NH2; 39 amino acids, terminal amino group at Cys 39 (ECESGPCCRNCKFLKEGTICKRARGDDMDDYCNGKTCDC-NH2; not fully specified (bridges); also: terminal modifications Ch, Cy, terminal amino group at Cys 39)	6.10
H-ECESGPCCRNCKFLKEGTICKRARGDDMDDYCNGKTCDCPRNPHKGPAT-OH (disulfide 2-11, 7-32, 8-37, 20-39 (inferred)) [Polypeptide I, echistatin]	7.52
